Tested on: HIV-1RF
assay-info: Anti-HIV-1 efficacy in CEM-SS cells infected with HIV-1RF (MTS staining)
Type: cell-based
condition-context: Human immunodeficiency virus 1, CEM-SS; Table 5; tipranavir conjugates in cell-based assay; read-out: CEM-SS/HIV-1RF EC50
Protocol: Compounds were tested at a 1.0 μM high-test concentration in DMSO. CEM-SS cells were passaged in T-75 flasks prior to use in the antiviral assay. […] Total cell and viability quantification was performed using a hemacytometer and trypan blue exclusion. […] At assay termination, the assay plates were stained with the soluble tetrazolium-based dye MTS (CellTiter Reagent, Promega) to determine cell viability and quantify compound cytotoxicity. […]
metric-name: EC50 (nM)
Kindly provide the numeric value in nM only, without the unit symbol.

// EC50 lookup, compound = CCC[C@@]1(CCc2ccccc2)CC(O)=C([C@H](CC)c2cccc(NS(=O)(=O)c3ccc(C(F)(F)F)cn3)c2)C(=O)O1 [Tipranavir, tipranavir, reference compound] , result: 120

* * *

Would you mind telling me the reported CC50 of each entry?
assay-info: in vitro
condition-context: human
Kindly provide the numeric value in µM only, without the unit symbol.

// CC50 lookup, compound = COCCOCCOCCOC(=O)NC(C(=O)NC(Cc1ccccc1)C(O)CN(Cc1ccc(-c2ccccn2)cc1)NC(=O)C(NC(=O)OCCOCCOCCOC)C(C)(C)C)C(C)(C)C (centres unmarked) , result: 95.7

// CC50 lookup, compound = COC(=O)N[C@H](C(=O)N[C@@H](Cc1ccccc1)[C@@H](O)CN(Cc1ccc(-c2ccccn2)cc1)NC(=O)[C@@H](NC(=O)OC)C(C)(C)C)C(C)(C)C [Atazanavir, atazanavir, reference compound] , result: 54.9

// CC50 lookup, compound = CCC[C@@]1(CCc2ccccc2)CC(O)=C([C@H](CC)c2cccc(NS(=O)(=O)c3ccc(C(F)(F)F)cn3)c2)C(=O)O1 [Tipranavir, tipranavir, reference compound] , result: 30.6
